Every entry's value here was drawn from patent US8729082B2.

Target: human kinase Mps-1 (Homo sapiens, UniProt P33981)
Construct: N-terminally GST-tagged human full length recombinant Mps-1 kinase
Sequence (P33981 whole entry): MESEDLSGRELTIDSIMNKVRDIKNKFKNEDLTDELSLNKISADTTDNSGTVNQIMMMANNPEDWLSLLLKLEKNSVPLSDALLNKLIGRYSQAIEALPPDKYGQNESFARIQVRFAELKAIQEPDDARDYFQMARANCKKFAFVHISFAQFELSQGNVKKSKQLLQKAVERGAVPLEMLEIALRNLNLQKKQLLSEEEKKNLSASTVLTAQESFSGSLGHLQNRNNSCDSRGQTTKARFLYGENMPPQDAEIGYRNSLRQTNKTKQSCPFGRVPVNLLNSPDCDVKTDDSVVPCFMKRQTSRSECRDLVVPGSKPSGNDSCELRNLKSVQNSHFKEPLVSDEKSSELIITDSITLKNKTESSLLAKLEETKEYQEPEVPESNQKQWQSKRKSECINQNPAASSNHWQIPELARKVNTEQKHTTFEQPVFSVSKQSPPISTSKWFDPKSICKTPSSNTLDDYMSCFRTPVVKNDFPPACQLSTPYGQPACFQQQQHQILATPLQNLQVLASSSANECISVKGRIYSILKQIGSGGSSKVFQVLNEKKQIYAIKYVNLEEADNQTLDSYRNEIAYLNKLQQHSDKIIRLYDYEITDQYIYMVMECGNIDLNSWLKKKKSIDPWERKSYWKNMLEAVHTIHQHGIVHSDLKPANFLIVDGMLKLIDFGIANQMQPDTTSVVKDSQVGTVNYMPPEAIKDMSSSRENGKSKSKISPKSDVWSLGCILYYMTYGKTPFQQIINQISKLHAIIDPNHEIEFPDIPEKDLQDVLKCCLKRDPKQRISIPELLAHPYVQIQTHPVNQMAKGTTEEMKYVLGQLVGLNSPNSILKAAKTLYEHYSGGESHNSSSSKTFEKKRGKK
Assay: Mps-1 kinase assay (HTRF)
Details: lowATP; mean; read-out: Mps1 lowATP mean IC50
Measured IC50 of individual entries
Return type: number; implicit unit nM.

{"columns": ["mol.smiles", "parameter", "result"],
 "data": [
  ["O=C(NC1CC1)c1ccc(-c2cnc3c(NCc4cccs4)nc4cc(F)c(F)cc4n23)cc1", "IC50", 62.2],
  ["O=C(NC1CC1)c1ccc(-c2cnc3c(NCc4ccc(F)cc4)nc4ccccc4n23)cc1", "IC50", 56.3],
  ["Cc1cc2nc(NCCC(C)C)c3ncc(-c4ccc(C(=O)NC5CC5)c(Cl)c4)n3c2cc1C", "IC50", 71.8],
  ["CCCNc1nc2cc(C#N)ccc2n2c(-c3ccc(C(=O)NC4CC4)c(Cl)c3)cnc12", "IC50", 810],
  ["CC(C)CNc1nc2ccccc2n2c(-c3ccc(C(=O)NCCN4CCNC4=O)cc3)cnc12", "IC50", 11900]
]}

Q: Return IC50 measured with human kinase Mps-1 (Homo sapiens, UniProt P33981) given this compound: CC(C)CNc1nc2ccccc2n2c(-c3cccc4cnccc34)cnc12
Result: 11800

Q: // next record N#Cc1ccc2c(c1)nc(NCCCN1CCOCC1)c1ncc(-c3ccc(C(=O)NC4CC4)cc3)n12
Result: 413

Q: // next record CCCCNc1nc2ccc(F)cc2n2c(-c3ccc(C(=O)NC4CC4)cc3)cnc12
Result: 39.2
